Reference for the values: patent US20240209076A1

# Test Target: T1, recombinant human IL-6 (human, UniProt P05231 30-212)
# T1 construct: Flowed in solution over the captured antibodies
# T1 sequence (P05231 30-212 limits assumed): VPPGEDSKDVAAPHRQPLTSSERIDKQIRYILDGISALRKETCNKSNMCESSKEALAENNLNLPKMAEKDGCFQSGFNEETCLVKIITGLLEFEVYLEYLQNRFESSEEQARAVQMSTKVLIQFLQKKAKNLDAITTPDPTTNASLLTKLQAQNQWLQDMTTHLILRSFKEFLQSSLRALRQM
# Assay Explanation: SPR (Biacore), supernatant IgG on Protein A, 25 C

Binder	kon [M⁻¹ s⁻¹]
anti-IL-6 antibody, heavy chain WT, light chain S24P (antibody, IgG1, V domains shown, Full IgG1 tested; V domains derived as in m2) VH: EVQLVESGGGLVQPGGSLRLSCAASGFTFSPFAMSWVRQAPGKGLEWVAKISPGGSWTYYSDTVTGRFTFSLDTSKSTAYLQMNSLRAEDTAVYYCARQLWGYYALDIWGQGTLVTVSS VL: DIQLTQSPSSLSASVGDRVTITCPASISVSYMYWYQQKPGKAPKLLIYDMSNLASGVPSRFSGSGSGTDFTLTISSLQPEDFATYYCMQWSGYPYTFGQGTKVEIK	484000
anti-IL-6 antibody, heavy chain G66E, light chain WT (antibody, IgG1, V domains shown, Full IgG1 tested; V domains derived as in m2) VH: EVQLVESGGGLVQPGGSLRLSCAASGFTFSPFAMSWVRQAPGKGLEWVAKISPGGSWTYYSDTVTERFTFSLDTSKSTAYLQMNSLRAEDTAVYYCARQLWGYYALDIWGQGTLVTVSS VL: DIQLTQSPSSLSASVGDRVTITCSASISVSYMYWYQQKPGKAPKLLIYDMSNLASGVPSRFSGSGSGTDFTLTISSLQPEDFATYYCMQWSGYPYTFGQGTKVEIK	1.02e+06
